test system: NCI-H727; experiment: relative viability (nuclei count vs DMSO), 5 days (fraction); higher = more cells survive; conditions: first compound 20 µM
Record form. Attribute: relative viability. Fill in for each entry.
Answers are plain numbers.

Solved entries (count: 2):
>  <molecule>
COCC1(CO)C(=O)C2CCN1CC2 (stereo unspecified) [PRIMA-1MET] + CS(=O)(=O)CCNCc1ccc(-c2ccc3ncnc(Nc4ccc(OCc5cccc(F)c5)c(Cl)c4)c3c2)o1 [Lapatinib] (partner 2 µM)

>  <relative viability>
0.113

$$$$
>  <molecule>
COCC1(CO)C(=O)C2CCN1CC2 (stereo unspecified) [PRIMA-1MET] + CC(=O)c1c(C)c2cnc(Nc3ccc(N4CCNCC4)cn3)nc2n(C2CCCC2)c1=O [Palbociclib] (partner 0.5 µM)

>  <relative viability>
0.379

$$$$

Hi! Can you tell me relative viability for each of these molecules?
1. COCC1(CO)C(=O)C2CCN1CC2 (stereo unspecified) [PRIMA-1MET] + O=C(CCCCCCC(=O)Nc1ccccc1)NO [Vorinostat] (partner 1 µM)
2. COCC1(CO)C(=O)C2CCN1CC2 (stereo unspecified) [PRIMA-1MET] + COc1cccc2cc(-c3nc([C@H]4CC[C@H](C(=O)O)CC4)n4ncnc(N)c34)[nH]c12 [OSI-027] (partner 0.5 µM)
3. COCC1(CO)C(=O)C2CCN1CC2 (stereo unspecified) [PRIMA-1MET] + CC1(C)CCC(c2ccc(Cl)cc2)=C(CN2CCN(c3ccc(C(=O)NS(=O)(=O)c4ccc(N[C@H](CCN5CCOCC5)CSc5ccccc5)c(S(=O)(=O)C(F)(F)F)c4)cc3)CC2)C1 [Navitoclax] (partner 0.5 µM)

// result
[0.689, 0.338, 0.105]

// query Sample COCC1(CO)C(=O)C2CCN1CC2 (stereo unspecified) [PRIMA-1MET] + Cc1cc(Nc2cc(N3CCN(C)CC3)nc(Sc3ccc(NC(=O)C4CC4)cc3)n2)n[nH]1 [Tozasertib] (partner 0.1 µM) — what was its relative viability?
// result 0.293

###

test system: NCI-H1993; assay: relative viability (nuclei count vs DMSO), 5 days (fraction); higher = more cells survive; settings: first compound 0.03162 µM
The class of a record is decided solely by its measured relative viability; consult low bracket = under 0.6, middle bracket = from 0.6 up to 0.8, high bracket = 0.8 and over

Recorded results for 6 compounds are shown here.
>  <compound>
O=c1cc(N2CCOCC2)oc2c(-c3cccc4c3sc3ccccc34)cccc12 + COc1cc2c(Oc3ccc(NC(=O)C4(C(=O)Nc5ccc(F)cc5)CC4)cc3F)ccnc2cc1OCCCN1CCOCC1 [Foretinib] (partner 0.25 µM)

>  <group>
high bracket

$$$$
>  <compound>
CCN(CC)CCCCNc1ncc2cc(-c3cc(OC)cc(OC)c3)c(NC(=O)NC(C)(C)C)nc2n1 + COc1cccc2cc(-c3nc([C@H]4CC[C@H](C(=O)O)CC4)n4ncnc(N)c34)[nH]c12 [OSI-027] (partner 0.5 µM)

>  <group>
low bracket

$$$$
>  <compound>
O=c1cc(N2CCOCC2)oc2c(-c3cccc4c3sc3ccccc34)cccc12 + Cc1nc(NC(=O)N2CCC[C@H]2C(N)=O)sc1-c1ccnc(C(C)(C)C(F)(F)F)c1 [Alpelisib] (partner 2 µM)

>  <group>
middle bracket

$$$$
>  <compound>
CCN(CC)CCCCNc1ncc2cc(-c3cc(OC)cc(OC)c3)c(NC(=O)NC(C)(C)C)nc2n1 + NC(=O)Nc1cc(-c2cccc(F)c2)sc1C(=O)N[C@H]1CCCNC1 [AZD7762] (partner 0.2 µM)

>  <group>
middle bracket

$$$$
>  <compound>
O=c1cc(N2CCOCC2)oc2c(-c3cccc4c3sc3ccccc34)cccc12 + COc1cccc2cc(-c3nc([C@H]4CC[C@H](C(=O)O)CC4)n4ncnc(N)c34)[nH]c12 [OSI-027] (partner 0.5 µM)

>  <group>
low bracket

$$$$
>  <compound>
O=c1cc(N2CCOCC2)oc2c(-c3cccc4c3sc3ccccc34)cccc12 + CS(=O)(=O)CCNCc1ccc(-c2ccc3ncnc(Nc4ccc(OCc5cccc(F)c5)c(Cl)c4)c3c2)o1 [Lapatinib] (partner 2 µM)

>  <group>
high bracket

$$$$

With those in mind, consider the next compound.
// query Any idea which band CCN(CC)CCCCNc1ncc2cc(-c3cc(OC)cc(OC)c3)c(NC(=O)NC(C)(C)C)nc2n1 + CC(C)C[C@H](NC(=O)[C@H](Cc1ccccc1)NC(=O)c1cnccn1)B(O)O [Bortezomib] (partner 0.002 µM) is in?
// result high bracket

###

system: NCI-H1299; assay: relative viability (nuclei count vs DMSO), 5 days (fraction); higher = more cells survive; settings: first compound 0.08 µM
Give measured relative viability for each item. Keep answers brief.
Numbers only.

>  <compound>
O=c1cc(-c2cccc3c2Sc2ccccc2S3)oc(N2CCOCC2)c1 + COc1cc2c(Oc3ccc(NC(=O)C4(C(=O)Nc5ccc(F)cc5)CC4)cc3F)ccnc2cc1OCCCN1CCOCC1 [Foretinib] (partner 0.25 µM)

>  <relative viability>
1.09

$$$$
>  <compound>
COc1nc(C)cnc1NS(=O)(=O)c1cccnc1-c1ccc(-c2nnco2)cc1 [Zibotentan] + Cc1nc(NC(=O)N2CCC[C@H]2C(N)=O)sc1-c1ccnc(C(C)(C)C(F)(F)F)c1 [Alpelisib] (partner 2 µM)

>  <relative viability>
1.06

$$$$
>  <compound>
COc1nc(C)cnc1NS(=O)(=O)c1cccnc1-c1ccc(-c2nnco2)cc1 [Zibotentan] + CC(C)C[C@H](NC(=O)[C@H](Cc1ccccc1)NC(=O)c1cnccn1)B(O)O [Bortezomib] (partner 0.002 µM)

>  <relative viability>
0.999

$$$$

Give relative viability for each of the items listed below.
1. O=c1cc(-c2cccc3c2Sc2ccccc2S3)oc(N2CCOCC2)c1 + C[C@]1(O)C[C@@H](c2nc(-c3ccc4ccc(-c5ccccc5)nc4c3)c3c(N)nccn32)C1 [Linsitinib] (partner 1 µM)
2. O=c1cc(-c2cccc3c2Sc2ccccc2S3)oc(N2CCOCC2)c1 + CC1(C)CCC(c2ccc(Cl)cc2)=C(CN2CCN(c3ccc(C(=O)NS(=O)(=O)c4ccc(N[C@H](CCN5CCOCC5)CSc5ccccc5)c(S(=O)(=O)C(F)(F)F)c4)cc3)CC2)C1 [Navitoclax] (partner 0.5 µM)

// result
1: 0.987; 2: 1.08

# return relative viability for each item in the list
1. COc1nc(C)cnc1NS(=O)(=O)c1cccnc1-c1ccc(-c2nnco2)cc1 [Zibotentan] + CC1(C)CCC(c2ccc(Cl)cc2)=C(CN2CCN(c3ccc(C(=O)NS(=O)(=O)c4ccc(N[C@H](CCN5CCOCC5)CSc5ccccc5)c(S(=O)(=O)C(F)(F)F)c4)cc3)CC2)C1 [Navitoclax] (partner 0.5 µM)
2. COc1nc(C)cnc1NS(=O)(=O)c1cccnc1-c1ccc(-c2nnco2)cc1 [Zibotentan] + COc1cc2c(Oc3ccc(NC(=O)C4(C(=O)Nc5ccc(F)cc5)CC4)cc3F)ccnc2cc1OCCCN1CCOCC1 [Foretinib] (partner 0.25 µM)
3. COc1nc(C)cnc1NS(=O)(=O)c1cccnc1-c1ccc(-c2nnco2)cc1 [Zibotentan] + CS(=O)(=O)N1CCN(Cc2cc3nc(-c4cccc5[nH]ncc45)nc(N4CCOCC4)c3s2)CC1 [Pictilisib] (partner 1 µM)

// result
[1.05, 1.11, 0.911]

###

system: NCI-H1650; experiment: relative viability (nuclei count vs DMSO), 5 days (fraction); higher = more cells survive; details: first compound 0.253 µM
Answer each item with its documented relative viability.
Numbers only.

Sample answers from the record:
>  <compound>
O=c1cc(-c2cccc3c2Sc2ccccc2S3)oc(N2CCOCC2)c1 + Cc1cc(Nc2cc(N3CCN(C)CC3)nc(Sc3ccc(NC(=O)C4CC4)cc3)n2)n[nH]1 [Tozasertib] (partner 0.1 µM)

>  <relative viability>
0.458

$$$$
>  <compound>
O=c1cc(-c2cccc3c2Sc2ccccc2S3)oc(N2CCOCC2)c1 + N=C(N)NC(=N)NCCc1ccccc1 [Phenformin] (partner 250 µM)

>  <relative viability>
0.561

$$$$
>  <compound>
O=c1cc(-c2cccc3c2Sc2ccccc2S3)oc(N2CCOCC2)c1 + C[C@@H](Oc1cc(-c2cnn(C3CCNCC3)c2)cnc1N)c1c(Cl)ccc(F)c1Cl [Crizotinib] (partner 1 µM)

>  <relative viability>
0.956

$$$$

Quick request: relative viability for each listed item, please.
1. O=c1cc(-c2cccc3c2Sc2ccccc2S3)oc(N2CCOCC2)c1 + CCNC(=O)c1noc(-c2cc(C(C)C)c(O)cc2O)c1-c1ccc(CN2CCOCC2)cc1 [Luminespib] (partner 0.01 µM)
2. O=c1cc(-c2cccc3c2Sc2ccccc2S3)oc(N2CCOCC2)c1 + Nc1nc2[nH]cc(CCc3ccc(C(=O)N[C@@H](CCC(=O)O)C(=O)O)cc3)c2c(=O)[nH]1 [Pemetrexed] (partner 0.2 µM)
3. O=c1cc(-c2cccc3c2Sc2ccccc2S3)oc(N2CCOCC2)c1 + O=C(CCCCCCC(=O)Nc1ccccc1)NO [Vorinostat] (partner 1 µM)

// result
0.199
0.366
0.643

// query Which measured relative viability value corresponds to O=c1cc(-c2cccc3c2Sc2ccccc2S3)oc(N2CCOCC2)c1 + CC(C)C[C@H](NC(=O)[C@H](Cc1ccccc1)NC(=O)c1cnccn1)B(O)O [Bortezomib] (partner 0.002 µM) ?
// result 0.168

The measured values listed here are drawn from the supplement of paper PMC10307832.
